We begin with a simple list: items and their reported FACS-Seq fitted mean (log10).
B1: library; a variant is named by its letters at N, in order (parent)
chain: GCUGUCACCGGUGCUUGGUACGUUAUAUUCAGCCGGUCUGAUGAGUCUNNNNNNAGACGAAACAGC

- Variants of: B1
- experimentNotes: FACS-Seq fitted mean relative fluorescence mCherry/BFP without ligand (log10 relative fluorescence); HEK293T overexpressing SLC46A1; higher = higher reporter protein expression
- appliedConditions: without (6R,S)-folinic acid; ligand present: no
# answer = number (no unit)

For `UACAAG` the variant record lists FACS-Seq fitted mean (log10) as 0.55

For `AAAACU` the variant record lists FACS-Seq fitted mean (log10) as 0.355

For `UAAGUC` the variant record lists FACS-Seq fitted mean (log10) as 0.228

For `GAGUGC` the variant record lists FACS-Seq fitted mean (log10) as 0.283

For `CCAAGU` the variant record lists FACS-Seq fitted mean (log10) as 0.0806

For `UGCAGA` the variant record lists FACS-Seq fitted mean (log10) as -0.262

For `AUAUAU` the variant record lists FACS-Seq fitted mean (log10) as 0.272

For `CCCCGA` the variant record lists FACS-Seq fitted mean (log10) as -0.346

Measured values drawn from the supplement of paper PMC6757056 for this set.
